Target protein (sequence): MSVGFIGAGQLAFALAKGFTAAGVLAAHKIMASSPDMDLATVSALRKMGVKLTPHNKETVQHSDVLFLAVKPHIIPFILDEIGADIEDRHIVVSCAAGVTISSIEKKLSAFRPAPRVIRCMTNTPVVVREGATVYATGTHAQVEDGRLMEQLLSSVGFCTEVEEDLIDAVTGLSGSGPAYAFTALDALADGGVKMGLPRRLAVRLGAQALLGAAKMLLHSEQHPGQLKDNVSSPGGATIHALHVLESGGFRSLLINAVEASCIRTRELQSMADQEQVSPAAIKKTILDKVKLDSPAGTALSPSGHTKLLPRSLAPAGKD
As shown below, each of these molecules has a reported IC50 value.

As a guide, the following entries are already answered.
INSERT INTO results (smilesstructure, reportedmeasurement) VALUES
  ('C#CCN(C)Cc1ccccc1[N+](=O)[O-]', '> 500 µM'),
  ('C#CCN(Cc1ccc(Br)cc1)C(C)=O', '> 500 µM');

Now turn to the next molecule.
Exam item: Bench note: what IC50 did C#CCN(C)Cc1ccc(F)cc1Br show?
Marked response: > 500 µM

---

As shown below, each of these compounds has a reported pIC50 value.
# targetOfAssay: Pyrroline-5-carboxylate reductase 1, mitochondrial (Homo sapiens)
# Sequence (P32322 whole entry): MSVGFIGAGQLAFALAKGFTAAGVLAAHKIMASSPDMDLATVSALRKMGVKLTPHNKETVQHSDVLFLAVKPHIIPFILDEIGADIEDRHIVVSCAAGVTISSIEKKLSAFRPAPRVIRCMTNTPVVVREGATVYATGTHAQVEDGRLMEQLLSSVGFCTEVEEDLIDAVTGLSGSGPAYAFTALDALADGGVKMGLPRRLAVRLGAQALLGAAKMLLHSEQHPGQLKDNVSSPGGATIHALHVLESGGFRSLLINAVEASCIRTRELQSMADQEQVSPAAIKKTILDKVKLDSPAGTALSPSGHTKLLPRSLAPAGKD
pIC50: −log10 of the molar value.

As a guide, the following entries are already answered.
INSERT INTO results (smilesstructure, targetofassay, reportedmeasurement) VALUES
  ('C#CCN(Cc1ccc(Br)cc1)CC1CC1', 'Pyrroline-5-carboxylate reductase 1, mitochondrial (Homo sapiens)', '< 3.30'),
  ('C#CCN(C)Cc1cc(Cl)cc(Cl)c1', 'Pyrroline-5-carboxylate reductase 1, mitochondrial (Homo sapiens)', '< 3.30');

Now turn to the next compound.
Exam item: Bench note: what pIC50 did C#CCN(C)CCc1ccc(Br)cc1 show?
Marked response: < 3.30
